Cited source for all entries: the supplement of paper PMC8617591

Recorded Einf values for a group of compounds are listed next.
- System: Mycobacterium tuberculosis Erdman (autoluminescent)
- TEST: Einf, fitted maximum growth inhibition of combination (fraction); higher = stronger maximal inhibition
- COND: in vitro model: dormancy (butyrate + nitrate, low O2); time point: terminal (~4-5 doublings, model-specific)
Please give only the number in your answer, with no unit.

COMPOUND	MEASUREMENT LABEL	OBS VALUE
CC(C)/N=c1\cc2n(-c3ccc(Cl)cc3)c3ccccc3nc-2cc1Nc1ccc(Cl)cc1 [clofazimine] + NNC(=O)c1ccncc1 [isoniazid]	Einf	0.981
CC[C@@H](CO)NCCN[C@@H](CC)CO [ethambutol] + NC(=O)c1cnccn1 [pyrazinamide]	Einf	0.945
O=[N+]([O-])c1cn2c(n1)OC[C@@H](OCc1ccc(OC(F)(F)F)cc1)C2 [pretomanid] + NC(=O)c1cnccn1 [pyrazinamide]	Einf	0.995

Lookup: For the compound shown here, NNC(=O)c1ccncc1 [isoniazid] + COc1c(N2C[C@@H]3CCCN[C@@H]3C2)c(F)cc2c(=O)c(C(=O)O)cn(C3CC3)c12 [moxifloxacin] , give the reported Einf.
Found: 0.985

Lookup: For the compound shown here, O=[N+]([O-])c1cn2c(n1)OC[C@@H](OCc1ccc(OC(F)(F)F)cc1)C2 [pretomanid] + CO[C@H]1/C=C/O[C@@]2(C)Oc3c(C)c(O)c4c(O)c(c(/C=N/N5CCN(C)CC5)c(O)c4c3C2=O)NC(=O)/C(C)=C\C=C\[C@H](C)[C@H](O)[C@@H](C)[C@@H](O)[C@@H](C)[C@H](OC(C)=O)[C@@H]1C [rifampicin] , give the reported Einf.
Found: 0.986

* * *

Recorded GRinf values for a group of compounds are listed next.
- Tested on: Mycobacterium tuberculosis Erdman (autoluminescent)
- TEST: GRinf, maximum normalised growth rate inhibition (three-drug combination) (unitless (-1 to 1)); higher = less effect (negative = killing)
- COND: in vitro model: cholesterol 0.05 mM; time point: constant (~7 days, model-specific)
Please give only the number in your answer, with no unit.

COMPOUND	OBS VALUE
NNC(=O)c1ccncc1 [isoniazid] + O=[N+]([O-])c1cn2c(n1)OC[C@@H](OCc1ccc(OC(F)(F)F)cc1)C2 [pretomanid] + NC(=O)c1cnccn1 [pyrazinamide]	-0.21
COc1nc2ccc(Br)cc2cc1[C@@H](c1ccccc1)[C@@](O)(CCN(C)C)c1cccc2ccccc12 [bedaquiline] + CC(C)/N=c1\cc2n(-c3ccc(Cl)cc3)c3ccccc3nc-2cc1Nc1ccc(Cl)cc1 [clofazimine] + NNC(=O)c1ccncc1 [isoniazid]	-0.209
NC(=O)c1cnccn1 [pyrazinamide] + CO[C@H]1/C=C/O[C@@]2(C)Oc3c(C)c(O)c4c(O)c(c(/C=N/N5CCN(C6CCCC6)CC5)c(O)c4c3C2=O)NC(=O)/C(C)=C\C=C\[C@H](C)[C@H](O)[C@@H](C)[C@@H](O)[C@@H](C)[C@H](OC(C)=O)[C@@H]1C [rifapentine] + CO[C@H]1/C=C/O[C@@]2(C)Oc3c(C)c(O)c4c(O)c(c(/C=N/N5CCN(C)CC5)c(O)c4c3C2=O)NC(=O)/C(C)=C\C=C\[C@H](C)[C@H](O)[C@@H](C)[C@@H](O)[C@@H](C)[C@H](OC(C)=O)[C@@H]1C	0.0861
COc1nc2ccc(Br)cc2cc1[C@@H](c1ccccc1)[C@@](O)(CCN(C)C)c1cccc2ccccc12 [bedaquiline] + CC(C)/N=c1\cc2n(-c3ccc(Cl)cc3)c3ccccc3nc-2cc1Nc1ccc(Cl)cc1 [clofazimine] + CC[C@@H](CO)NCCN[C@@H](CC)CO [ethambutol]	-0.109
COc1nc2ccc(Br)cc2cc1[C@@H](c1ccccc1)[C@@](O)(CCN(C)C)c1cccc2ccccc12 [bedaquiline] + O=[N+]([O-])c1cn2c(n1)OC[C@@H](OCc1ccc(OC(F)(F)F)cc1)C2 [pretomanid] + CO[C@H]1/C=C/O[C@@]2(C)Oc3c(C)c(O)c4c(O)c(c(/C=N/N5CCN(C)CC5)c(O)c4c3C2=O)NC(=O)/C(C)=C\C=C\[C@H](C)[C@H](O)[C@@H](C)[C@@H](O)[C@@H](C)[C@H](OC(C)=O)[C@@H]1C [rifampicin]	-0.188

Lookup: For the compound shown here, CC(C)/N=c1\cc2n(-c3ccc(Cl)cc3)c3ccccc3nc-2cc1Nc1ccc(Cl)cc1 [clofazimine] + CC(=O)NC[C@H]1CN(c2ccc(N3CCOCC3)c(F)c2)C(=O)O1 [linezolid] + O=[N+]([O-])c1cn2c(n1)OC[C@@H](OCc1ccc(OC(F)(F)F)cc1)C2 [pretomanid] , give the reported GRinf.
Found: -0.0316

* * *

Recorded GRinf values for a group of molecules are listed next.
- Tested on: Mycobacterium tuberculosis Erdman (autoluminescent)
- TEST: GRinf, maximum normalised growth rate inhibition (three-drug combination) (unitless (-1 to 1)); higher = less effect (negative = killing)
- COND: in vitro model: cholesterol-high 0.2 mM; time point: terminal (~4-5 doublings, model-specific)
Please give only the number in your answer, with no unit.

Use the examples below as a reference point.
MOLECULE	GRinf
COc1nc2ccc(Br)cc2cc1[C@@H](c1ccccc1)[C@@](O)(CCN(C)C)c1cccc2ccccc12 [bedaquiline] + CC[C@@H](CO)NCCN[C@@H](CC)CO [ethambutol] + NC(=O)c1cnccn1 [pyrazinamide]	-0.723
CC(=O)NC[C@H]1CN(c2ccc(N3CCOCC3)c(F)c2)C(=O)O1 [linezolid] + O=[N+]([O-])c1cn2c(n1)OC[C@@H](OCc1ccc(OC(F)(F)F)cc1)C2 [pretomanid] + NC(=O)c1cnccn1 [pyrazinamide]	-1

Proceeding to the next molecule to report its GRinf.
Lookup: For the molecule shown here, CC[C@@H](CO)NCCN[C@@H](CC)CO [ethambutol] + CO[C@H]1/C=C/O[C@@]2(C)Oc3c(C)c(O)c4c(O)c(c(/C=N/N5CCN(C6CCCC6)CC5)c(O)c4c3C2=O)NC(=O)/C(C)=C\C=C\[C@H](C)[C@H](O)[C@@H](C)[C@@H](O)[C@@H](C)[C@H](OC(C)=O)[C@@H]1C [rifapentine] + CO[C@H]1/C=C/O[C@@]2(C)Oc3c(C)c(O)c4c(O)c(c(/C=N/N5CCN(C)CC5)c(O)c4c3C2=O)NC(=O)/C(C)=C\C=C\[C@H](C)[C@H](O)[C@@H](C)[C@@H](O)[C@@H](C)[C@H](OC(C)=O)[C@@H]1C [rifampicin] , give the reported GRinf.
Found: -0.703

* * *

- System: Mycobacterium tuberculosis Erdman (autoluminescent)
- TEST: total FIC50 (Loewe) at 50% inhibition, three-drug combination (log2); higher = more antagonistic
- COND: in vitro model: acidic pH 5.7; time point: terminal (~4-5 doublings, model-specific)
Recorded total FIC50 values for a group of compounds are listed next.

Lookup: For the compound shown here, CC[C@@H](CO)NCCN[C@@H](CC)CO [ethambutol] + NNC(=O)c1ccncc1 [isoniazid] + CO[C@H]1/C=C/O[C@@]2(C)Oc3c(C)c(O)c4c(O)c(c(/C=N/N5CCN(C)CC5)c(O)c4c3C2=O)NC(=O)/C(C)=C\C=C\[C@H](C)[C@H](O)[C@@H](C)[C@@H](O)[C@@H](C)[C@H](OC(C)=O)[C@@H]1C [rifampicin] , give the reported total FIC50.
Found: 0.126

Lookup: For the compound shown here, COc1nc2ccc(Br)cc2cc1[C@@H](c1ccccc1)[C@@](O)(CCN(C)C)c1cccc2ccccc12 [bedaquiline] + NNC(=O)c1ccncc1 [isoniazid] + O=[N+]([O-])c1cn2c(n1)OC[C@@H](OCc1ccc(OC(F)(F)F)cc1)C2 [pretomanid] , give the reported total FIC50.
Found: 0.209

Lookup: For the compound shown here, CC(C)/N=c1\cc2n(-c3ccc(Cl)cc3)c3ccccc3nc-2cc1Nc1ccc(Cl)cc1 [clofazimine] + COc1c(N2C[C@@H]3CCCN[C@@H]3C2)c(F)cc2c(=O)c(C(=O)O)cn(C3CC3)c12 [moxifloxacin] + CO[C@H]1/C=C/O[C@@]2(C)Oc3c(C)c(O)c4c(O)c(c(/C=N/N5CCN(C)CC5)c(O)c4c3C2=O)NC(=O)/C(C)=C\C=C\[C@H](C)[C@H](O)[C@@H](C)[C@@H](O)[C@@H](C)[C@H](OC(C)=O)[C@@H]1C [rifampicin] , give the reported total FIC50.
Found: 0.552

* * *

- Tested on: Mycobacterium tuberculosis Erdman (autoluminescent)
- TEST: total FIC50 (Loewe) at 50% inhibition, three-drug combination (log2); higher = more antagonistic
- COND: in vitro model: standard 7H9 glycerol; time point: constant = terminal
Recorded total FIC50 values for a group of molecules are listed next.
Please give only the number in your answer, with no unit.

MOLECULE	MEASUREMENT LABEL	OBS VALUE
COc1nc2ccc(Br)cc2cc1[C@@H](c1ccccc1)[C@@](O)(CCN(C)C)c1cccc2ccccc12 [bedaquiline] + CC(=O)NC[C@H]1CN(c2ccc(N3CCOCC3)c(F)c2)C(=O)O1 [linezolid] + CO[C@H]1/C=C/O[C@@]2(C)Oc3c(C)c(O)c4c(O)c(c(/C=N/N5CCN(C6CCCC6)CC5)c(O)c4c3C2=O)NC(=O)/C(C)=C\C=C\[C@H](C)[C@H](O)[C@@H](C)[C@@H](O)[C@@H](C)[C@H](OC(C)=O)[C@@H]1C [rifapentine]	total FIC50	0.253
COc1nc2ccc(Br)cc2cc1[C@@H](c1ccccc1)[C@@](O)(CCN(C)C)c1cccc2ccccc12 [bedaquiline] + NC(=O)c1cnccn1 [pyrazinamide] + CO[C@H]1/C=C/O[C@@]2(C)Oc3c(C)c(O)c4c(O)c(c(/C=N/N5CCN(C)CC5)c(O)c4c3C2=O)NC(=O)/C(C)=C\C=C\[C@H](C)[C@H](O)[C@@H](C)[C@@H](O)[C@@H](C)[C@H](OC(C)=O)[C@@H]1C [rifampicin]	total FIC50	0.401

Proceeding to the next molecule to report its total FIC50.
Lookup: For the molecule shown here, NNC(=O)c1ccncc1 [isoniazid] + CC(=O)NC[C@H]1CN(c2ccc(N3CCOCC3)c(F)c2)C(=O)O1 [linezolid] + CO[C@H]1/C=C/O[C@@]2(C)Oc3c(C)c(O)c4c(O)c(c(/C=N/N5CCN(C6CCCC6)CC5)c(O)c4c3C2=O)NC(=O)/C(C)=C\C=C\[C@H](C)[C@H](O)[C@@H](C)[C@@H](O)[C@@H](C)[C@H](OC(C)=O)[C@@H]1C [rifapentine] , give the reported total FIC50.
Found: 0.53
